# system-name: Bcl-xL, Q07817
# Sequence (Q07817 1-209): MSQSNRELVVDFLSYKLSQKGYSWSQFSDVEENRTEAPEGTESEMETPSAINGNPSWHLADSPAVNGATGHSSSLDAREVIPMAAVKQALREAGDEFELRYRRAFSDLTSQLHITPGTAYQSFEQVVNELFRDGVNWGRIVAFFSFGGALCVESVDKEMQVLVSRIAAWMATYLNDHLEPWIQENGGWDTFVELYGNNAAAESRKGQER
# assay-name: peptide SPOT array, c-Myc-tagged receptor at 1 uM or 100 nM, anti-c-Myc-Cy3
Below, each entry is listed alongside its reported SPOT signal as a fraction of Bim BH3's signal on the same receptor and array.
assay-readout: SPOT signal as a fraction of Bim BH3's signal on the same receptor and array

binder	observed-measurement
GSIAKKFSAALQKLSSHLQPRVPEHS [ANO2]	0.11
VLAPVQLGKWLVLFCDEINLPDMDKY [DYNC1H1]	0.36
GVMTQEVGQLDQDMGDDVYQQYRSLT [HUWE1]	0.02
HPRKESQVRQDAWVGDGVWVSIRLDS [SPAG9]	0.02
